Measured self-cleavage kobs at 10000 uM GlcN6P of individual entries
B1: glmS ribozyme (parent)
chain: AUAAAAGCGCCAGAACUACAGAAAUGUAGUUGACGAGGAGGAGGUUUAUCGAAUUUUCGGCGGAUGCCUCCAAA

variants of: B1; assay: self-cleavage kobs at 10000 uM GlcN6P; higher = faster cleavage; RNA array; settings: with glucosamine-6-phosphate
Variants at the floor of the assay were thinned out.

MUTATION | BOUND TYPE | self-cleavage kobs at 10000 uM GlcN6P, s⁻¹
C16A C34A | < | 1e-05
C8U C34A A53C C71A | < | 1e-05
C50G C68A | = | 7.83e-05
G13A C67U | = | 0.000405
A64G G66U | = | 0.00143
G29C A39G | = | 0.00525
A12C C16A C67U | = | 0.000164
G32C U45G U65A | < | 1e-05
C8G U46G | < | 1e-05
U30G U54A | = | 0.00853
U46A U55A | = | 0.00298
G44C A53C | = | 5.46e-05
A15U U30G A48U A53G | = | 0.000112
A15G U31A A36G C58U | < | 1e-05
C8U U30C | < | 1e-05
U31C U47C | = | 0.00042
G59C G63A | < | 1e-05
A48U U69C | = | 0.000215
U31G U56G C71A | = | 0.00035
A15U G35A | < | 1e-05
A33G C34U C50G C67U | = | 0.000194
G32C | = | 0.000103
